Tested on: SF-268 CNS
Assay: NCI-60 one-dose screen, 48 h (100 = growth as untreated, 0 = no growth, -100 = all killed)
Details: 10 µM unless noted
About 83,000 compounds went through this panel and 20% of them were active in at least one assay; those are over-represented in the sample as a whole.
Flag rule - growth less than 90% flags 1; the remaining entries get 0.

### Prompt Hello, is growth of the following compound strictly smaller than 90%? Clc1ccc(N2N=C(c3cccc(Nc4ccncc4)c3)CC2c2ccc(Br)cc2)cc1 (stereo unspecified)
### Response 1

### Prompt Likewise for Cc1ccc(S(=O)(=O)Nc2ccc(Cl)cc2)cc1 ?
### Response 0

### Prompt Field entry: O=C(Nc1nc(-c2ccc(Br)cc2)cs1)c1cc(-c2ccc(Br)cc2)nc2ccc(Cl)cc12
### Response 1

### Prompt How about CCCCCN1C=C/C(=C\C(=O)N(C)c2cccc3ccccc23)c2ccccc21 ?
### Response 0

### Prompt Please give the result for COc1ccc(NS(=O)(=O)c2ccc(C)cc2)c([N+](=O)[O-])c1 too.
### Response 0

### Prompt Next compound: COc1ccc(-c2nc(N/N=C/c3cccc(Br)c3)nc(N3CCOCC3)c2C#N)cc1
### Response 1

### Prompt Then O=C(Nc1sc2c(c1C(=O)O)CCCC2)c1cccc(C(F)(F)F)c1 ?
### Response 0

### Prompt One more compound: COc1ccc(C2CC(c3cccc(Nc4ccncc4)c3)=NN2c2cc(Cl)cc(Cl)c2)cc1 (stereo unspecified)
### Response 1

### Prompt Try the compound COc1ccccc1/C=N/NC1=NC2C(N1)N(C)C(=O)N2C (stereo unspecified)
### Response 0

### Prompt Likewise for Cc1ccccc1CNc1ccc(N2CCOCC2)cc1 ?
### Response 0

### Prompt Then O=C1CCCN1c1cccc2cccnc12 ?
### Response 0

###

System: HOP-62 NSCLC
Assay: NCI-60 one-dose screen, 48 h (100 = growth as untreated, 0 = no growth, -100 = all killed)
Conditions: 10 µM unless noted
This is part of a sample that, as a whole, favours compounds with a hit. Of some 83,000 tested, about 20% had one in any assay.
MEASURED_METRIC: growth (%)
Could you give me the number in %? Just the number is fine.

### Prompt Would you mind telling me what growth value was observed for O=C(Nc1nc2ccc(C(=O)N3CCN(c4ccc(Cl)c(Cl)c4)CC3)cc2s1)c1ccc(NCCc2ccccc2)c([N+](=O)[O-])c1 ?
### Response 96.6

### Prompt Follow-up entry: Cc1cccc(Oc2ccc(Nc3ncnc4ccc(NC(=O)CN(C)C)cc34)cc2Cl)c1
### Response 59.3

### Prompt What would you report for COc1ccc(/C=C/C(=O)c2ccc(OC)c(OC)c2)cc1O ?
### Response 39.7

### Prompt Same lookup for CC(C)CN(C(=O)c1ccc(Cl)cc1)c1c(N)n(CC(C)C)c(=O)[nH]c1=O , please.
### Response 90.6

### Prompt # repeat for c1ccc2c(-c3c4ccsc4cc4[nH]c5ccccc5c34)c[nH]c2c1
### Response 39.7

### Prompt Same question, Cc1ccc2[nH]c(=S)n(-c3ccc(S(=O)(=O)Nc4ccc(Cl)nn4)cc3)c(=O)c2c1 this time
### Response 104

### Prompt Next entry: CCSc1ccc2c(c1)N(CCCN1CCN(C)CC1)c1ccccc1S2
### Response 69.8

### Prompt # repeat for CC(=O)[C@@H]1CC[C@]2(C(N)=O)CC[C@]3(C)[C@H](CC[C@@H]4[C@@]5(C)CCC(=O)C(C)(C)[C@@H]5CC[C@]43C)[C@@H]12
### Response 92

### Prompt Now the molecule CCCCCOc1ccc(/C=N/Nc2cc(C)nc3ccc(Br)cc23)cc1
### Response 58.1

###

Kindly state growth for each of the entries shown.
Test system: ACHN renal
Test: NCI-60 one-dose screen, 48 h (100 = growth as untreated, 0 = no growth, -100 = all killed)
Details: 10 µM unless noted
The panel holds about 83,000 compounds, 20% with a hit somewhere; the sample as a whole holds those more often.
# value in %; strip the unit string

### Prompt Request body: readout growth, system ACHN renal, query COc1cccc(CCC(=O)c2cc3c(N)c(C(=O)Nc4cccc(Cl)c4C)sc3nc2C)c1 . Return the value.
### Response 32.2

### Prompt Param item: C=C1C(=O)O[C@H]2[C@H]1CC/C(COC(=O)NCCc1c[nH]c3ccc(Cl)cc13)=C\CC[C@@]1(C)O[C@@H]21
### Response -100

### Prompt // query: COc1ccc(-c2c[nH]c(C(=O)O)c2-c2cc(OC)c3c(c2OC)OCO3)cc1
### Response 100

### Prompt Request: COc1ccc(Cn2nc(-c3cc(OC)c(OC)c(OC)c3)c3c2CCc2cnoc2-3)cc1OC
### Response 74.9

### Prompt What would you report for Cc1c2c(cc[n+]1Cc1ccccc1)c1ccc(OCc3ccccc3)cc1n2Cc1ccccc1 ?
### Response 8.54

###

System: SK-OV-3 ovarian
Experiment: NCI-60 one-dose screen, 48 h (100 = growth as untreated, 0 = no growth, -100 = all killed)
Conditions: 10 µM unless noted
The panel holds about 83,000 compounds, 20% with a hit somewhere; the sample as a whole holds those more often.
MEASURED_METRIC: growth (%)
I only need the number, in %, no unit after it.

### Prompt # get_value(readout= growth, system= SK-OV-3 ovarian) for CCCCCCc1nc2nc(Cl)c(Cl)nc2[nH]1
### Response 92

### Prompt Similarly, CC(C)CN(C(=O)c1ccc(Cl)cc1)c1c(N)n(CC(C)C)c(=O)[nH]c1=O ?
### Response 26.8

### Prompt Next compound up: O=S(=O)(NCCNc1nccc(-c2c(-c3cccc(F)c3)nc3occn23)n1)c1cccc2ccccc12
### Response 69

### Prompt Follow-up entry: CCc1c(Nc2ccc(C)cc2)nc(N)[nH]c1=O
### Response 114

### Prompt Also need COc1ccc(/C=C(/c2ccccc2)[N+](=O)[O-])cc1 , thanks.
### Response 9.1

### Prompt Repeat with COc1cc(NCCN(CC(C)C)C2CCCC2)c2ncccc2c1
### Response 97.7

### Prompt Proceed to Clc1ccc(N2N=C(c3cccc(Nc4ccncc4)c3)CC2c2ccc3c(c2)OCO3)cc1 (centres undefined)
### Response 54.8

### Prompt Same thing, different compound: Cc1cc(Nc2cccc(C(F)(F)F)c2)n2c(nc3ccccc32)c1C#N
### Response 46.4

### Prompt // same read-out, input: O=C1Nc2c(ccc(Cl)c2Cl)/C1=C/c1ccc([N+](=O)[O-])cc1
### Response 93.8

###

Test system: 786-0 renal
Assay: NCI-60 one-dose screen, 48 h (100 = growth as untreated, 0 = no growth, -100 = all killed)
Details: 10 µM unless noted
About 83,000 compounds went through this panel and 20% of them were active in at least one assay; those are over-represented in the sample as a whole.
MEASURED_METRIC: growth (%)
Provide only the numeric value, understood in %.

### Prompt For 786-0 renal, provide growth of O=C(Nc1nc(-c2ccccc2Cl)cs1)c1cc(-c2ccccc2)nc2ccc(Cl)cc12 please.
### Response 89.4

### Prompt // next record O=C(O)CNC(=O)CN1C(=O)c2ccccc2C1=O
### Response 98.4

### Prompt Would you mind doing CC(=O)c1c[nH]c2ccc(-c3ccnc(Nc4ccc(NC(=O)C5CCCC5)c(CN5CCOCC5)c4)n3)cc12 as well?
### Response 0.29

### Prompt Another compound: COc1ccc(Cl)cc1NC(=O)c1c(NC(=O)C(F)(F)C(F)(F)F)sc2c1CCCCC2
### Response -13.8

### Prompt Consider next the compound CCN(CC)CCOC(COc1cc(C)cc(C)c1)COc1cc(C)cc(C)c1 in the same way.
### Response 44.9

### Prompt Can you handle COc1c(Cl)cc(Cl)c2ccc(C=C3C(=O)NC(=S)NC3=O)nc12 next?
### Response -90.9

### Prompt Also need CCC1(CC)NC(=O)c2c(c3ccc(Cl)c(Cl)c3n2C)C1C#N (stereo not given) , thanks.
### Response 94.3

### Prompt Same for CC1(C)CC[C@]2(C(=O)NCC#CCN3CCOCC3)CC[C@]3(C)C(=CC[C@@H]4[C@@]5(C)Cc6c([nH]c7ccccc67)C(C)(C)[C@@H]5CC[C@]43C)[C@@H]2C1
### Response 92.7

### Prompt Input Cc1cccc(Oc2ccc(Nc3ncnc4ccc(NC(=O)CNCCO)cc34)cc2Cl)c1
### Response 55.7

### Prompt For Clc1ccc(C2CC(c3cccc(Nc4ccncc4)c3)=NN2c2ccc(Cl)cc2)cc1 (stereo not given) then?
### Response -71.7

Numbers sourced from PubChem BioAssay (NCI).
